measured.on: MELK (human)
test.details: KINOMEscan competition binding
run.conditions: compound 10.0 µM
Below, each entry is listed with its recorded kinase still bound, per cent of control.

- chemical.structure: "COc1ccc(-c2ccc3c(N4CCOCC4)nc(N4C[C@@H](C)O[C@@H](C)C4)nc3n2)cc1CO"
  kinase still bound, per cent of control, %: 97
- chemical.structure: "COC(=O)Nc1ccc(-c2nc(N3CCOCC3)c3cnn(C4CCN(C(=O)OC)CC4)c3n2)cc1"
  kinase still bound, per cent of control, %: 86
- chemical.structure: "CCC(=O)N1CCN(c2ccc(-n3c(=O)ccc4cnc5ccc(-c6cnc7ccccc7c6)cc5c43)cc2C(F)(F)F)CC1"
  kinase still bound, per cent of control, %: 50
- chemical.structure: "CC(C)n1nc(-c2cc3cc(O)ccc3[nH]2)c2c(N)ncnc21"
  kinase still bound, per cent of control, %: 10

* * *

Listed here: items and their measured per cent of control.
measured.on: PLK1 (human) (UniProt P53350)
Sequence (P53350 whole entry, looked up): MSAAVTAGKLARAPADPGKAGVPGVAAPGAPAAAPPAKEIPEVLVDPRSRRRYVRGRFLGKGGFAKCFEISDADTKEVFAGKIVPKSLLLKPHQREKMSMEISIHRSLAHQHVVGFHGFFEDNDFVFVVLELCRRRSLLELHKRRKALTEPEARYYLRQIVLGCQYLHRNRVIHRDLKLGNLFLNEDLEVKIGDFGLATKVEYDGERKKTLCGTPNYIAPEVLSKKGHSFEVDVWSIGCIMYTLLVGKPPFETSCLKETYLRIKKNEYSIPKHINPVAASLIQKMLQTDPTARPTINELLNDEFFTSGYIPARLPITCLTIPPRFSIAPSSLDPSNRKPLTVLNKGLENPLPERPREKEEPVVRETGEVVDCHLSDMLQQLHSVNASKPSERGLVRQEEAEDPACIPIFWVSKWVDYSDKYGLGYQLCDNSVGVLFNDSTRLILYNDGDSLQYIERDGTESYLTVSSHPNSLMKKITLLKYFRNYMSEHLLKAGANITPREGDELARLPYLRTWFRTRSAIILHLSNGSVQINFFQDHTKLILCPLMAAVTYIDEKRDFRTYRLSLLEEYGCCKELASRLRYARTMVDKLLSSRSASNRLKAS
run.conditions: compound 1.0 µM

- chemical.structure: "COc1ccc(-c2ccc3c(N4CCOCC4)nc(N4C[C@@H](C)O[C@@H](C)C4)nc3n2)cc1CO"
  per cent of control / %: 76
- chemical.structure: "CCC(=O)N1CCN(c2ccc(-n3c(=O)ccc4cnc5ccc(-c6cnc7ccccc7c6)cc5c43)cc2C(F)(F)F)CC1"
  per cent of control / %: 94
- chemical.structure: "CC(C)n1nc(-c2cc3cc(O)ccc3[nH]2)c2c(N)ncnc21"
  per cent of control / %: 89
- chemical.structure: "COC(=O)Nc1ccc(-c2nc(N3CCOCC3)c3cnn(C4CCN(C(=O)OC)CC4)c3n2)cc1"
  per cent of control / %: 105

* * *

measured.on: RPS6KA4 KD2 (human)
test.details: KINOMEscan competition binding
run.conditions: compound 10.0 µM
# kinase still bound, per cent of control per record follows
readout.type: kinase still bound, per cent of control (%)

- chemical.structure: "CCC(=O)N1CCN(c2ccc(-n3c(=O)ccc4cnc5ccc(-c6cnc7ccccc7c6)cc5c43)cc2C(F)(F)F)CC1"
  recorded.value: 100
- chemical.structure: "COC(=O)Nc1ccc(-c2nc(N3CCOCC3)c3cnn(C4CCN(C(=O)OC)CC4)c3n2)cc1"
  recorded.value: 88
- chemical.structure: "CC(C)n1nc(-c2cc3cc(O)ccc3[nH]2)c2c(N)ncnc21"
  recorded.value: 0
- chemical.structure: "COc1ccc(-c2ccc3c(N4CCOCC4)nc(N4C[C@@H](C)O[C@@H](C)C4)nc3n2)cc1CO"
  recorded.value: 95

* * *

measured.on: FGFR1 (human)
test.details: KINOMEscan competition binding
run.conditions: compound 10.0 µM
readout.type: kinase still bound, per cent of control (%)

- chemical.structure: "CCC(=O)N1CCN(c2ccc(-n3c(=O)ccc4cnc5ccc(-c6cnc7ccccc7c6)cc5c43)cc2C(F)(F)F)CC1"
  readout.type: "kinase still bound, per cent of control"
  recorded.value: 96
- chemical.structure: "CC(C)n1nc(-c2cc3cc(O)ccc3[nH]2)c2c(N)ncnc21"
  readout.type: "kinase still bound, per cent of control"
  recorded.value: 8.5
- chemical.structure: "COC(=O)Nc1ccc(-c2nc(N3CCOCC3)c3cnn(C4CCN(C(=O)OC)CC4)c3n2)cc1"
  readout.type: "kinase still bound, per cent of control"
  recorded.value: 100
- chemical.structure: "COc1ccc(-c2ccc3c(N4CCOCC4)nc(N4C[C@@H](C)O[C@@H](C)C4)nc3n2)cc1CO"
  readout.type: "kinase still bound, per cent of control"
  recorded.value: 100

* * *

measured.on: DDR2 (human)
test.details: KINOMEscan competition binding
run.conditions: compound 10.0 µM
Measured kinase still bound, per cent of control of individual entries
readout.type: kinase still bound, per cent of control (%)

- chemical.structure: "COc1ccc(-c2ccc3c(N4CCOCC4)nc(N4C[C@@H](C)O[C@@H](C)C4)nc3n2)cc1CO"
  recorded.value: 100
- chemical.structure: "CC(C)n1nc(-c2cc3cc(O)ccc3[nH]2)c2c(N)ncnc21"
  recorded.value: 11
- chemical.structure: "COC(=O)Nc1ccc(-c2nc(N3CCOCC3)c3cnn(C4CCN(C(=O)OC)CC4)c3n2)cc1"
  recorded.value: 100
- chemical.structure: "CCC(=O)N1CCN(c2ccc(-n3c(=O)ccc4cnc5ccc(-c6cnc7ccccc7c6)cc5c43)cc2C(F)(F)F)CC1"
  recorded.value: 100

* * *

Below: a set of entries, each annotated with reported kinase still bound, per cent of control.
measured.on: SBK1 (human)
test.details: KINOMEscan competition binding
run.conditions: compound 10.0 µM
readout.type: kinase still bound, per cent of control (%)

- chemical.structure: "COc1ccc(-c2ccc3c(N4CCOCC4)nc(N4C[C@@H](C)O[C@@H](C)C4)nc3n2)cc1CO"
  units.symbol: "%"
  recorded.value: 100
- chemical.structure: "CCC(=O)N1CCN(c2ccc(-n3c(=O)ccc4cnc5ccc(-c6cnc7ccccc7c6)cc5c43)cc2C(F)(F)F)CC1"
  units.symbol: "%"
  recorded.value: 88
- chemical.structure: "COC(=O)Nc1ccc(-c2nc(N3CCOCC3)c3cnn(C4CCN(C(=O)OC)CC4)c3n2)cc1"
  units.symbol: "%"
  recorded.value: 100
- chemical.structure: "CC(C)n1nc(-c2cc3cc(O)ccc3[nH]2)c2c(N)ncnc21"
  units.symbol: "%"
  recorded.value: 92

* * *

measured.on: UniProt P48730
Sequence (P48730 whole entry, looked up): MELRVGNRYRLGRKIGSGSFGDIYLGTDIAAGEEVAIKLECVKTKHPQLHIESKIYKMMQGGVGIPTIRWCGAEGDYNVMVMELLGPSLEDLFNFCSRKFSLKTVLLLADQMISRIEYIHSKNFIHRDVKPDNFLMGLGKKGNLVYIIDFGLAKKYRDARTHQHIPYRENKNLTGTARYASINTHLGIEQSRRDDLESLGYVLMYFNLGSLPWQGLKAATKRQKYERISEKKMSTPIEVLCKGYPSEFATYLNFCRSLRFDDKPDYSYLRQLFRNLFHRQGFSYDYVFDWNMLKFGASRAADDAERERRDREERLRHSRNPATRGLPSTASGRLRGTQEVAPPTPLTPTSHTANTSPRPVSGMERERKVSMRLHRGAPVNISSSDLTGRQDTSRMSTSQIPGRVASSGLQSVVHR
run.conditions: compound 10.0 µM
readout.type: per cent of control

- chemical.structure: "CC(C)n1nc(-c2cc3cc(O)ccc3[nH]2)c2c(N)ncnc21"
  recorded.value: "9%"
- chemical.structure: "COc1ccc(-c2ccc3c(N4CCOCC4)nc(N4C[C@@H](C)O[C@@H](C)C4)nc3n2)cc1CO"
  recorded.value: "109%"
- chemical.structure: "CCC(=O)N1CCN(c2ccc(-n3c(=O)ccc4cnc5ccc(-c6cnc7ccccc7c6)cc5c43)cc2C(F)(F)F)CC1"
  recorded.value: "104%"
- chemical.structure: "COC(=O)Nc1ccc(-c2nc(N3CCOCC3)c3cnn(C4CCN(C(=O)OC)CC4)c3n2)cc1"
  recorded.value: "92%"

* * *

measured.on: EPHB3 (human)
run.conditions: compound 1.0 µM
# Lookup of reported per cent of control keyed by entry
readout.type: per cent of control (%)

- chemical.structure: "COc1ccc(-c2ccc3c(N4CCOCC4)nc(N4C[C@@H](C)O[C@@H](C)C4)nc3n2)cc1CO"
  readout.type: "per cent of control"
  units.symbol: "%"
  recorded.value: 100
- chemical.structure: "CC(C)n1nc(-c2cc3cc(O)ccc3[nH]2)c2c(N)ncnc21"
  readout.type: "per cent of control"
  units.symbol: "%"
  recorded.value: 18
- chemical.structure: "COC(=O)Nc1ccc(-c2nc(N3CCOCC3)c3cnn(C4CCN(C(=O)OC)CC4)c3n2)cc1"
  readout.type: "per cent of control"
  units.symbol: "%"
  recorded.value: 100
- chemical.structure: "CCC(=O)N1CCN(c2ccc(-n3c(=O)ccc4cnc5ccc(-c6cnc7ccccc7c6)cc5c43)cc2C(F)(F)F)CC1"
  readout.type: "per cent of control"
  units.symbol: "%"
  recorded.value: 115

* * *

measured.on: RIOK3 (human) (UniProt O14730)
Sequence (O14730 whole entry, looked up): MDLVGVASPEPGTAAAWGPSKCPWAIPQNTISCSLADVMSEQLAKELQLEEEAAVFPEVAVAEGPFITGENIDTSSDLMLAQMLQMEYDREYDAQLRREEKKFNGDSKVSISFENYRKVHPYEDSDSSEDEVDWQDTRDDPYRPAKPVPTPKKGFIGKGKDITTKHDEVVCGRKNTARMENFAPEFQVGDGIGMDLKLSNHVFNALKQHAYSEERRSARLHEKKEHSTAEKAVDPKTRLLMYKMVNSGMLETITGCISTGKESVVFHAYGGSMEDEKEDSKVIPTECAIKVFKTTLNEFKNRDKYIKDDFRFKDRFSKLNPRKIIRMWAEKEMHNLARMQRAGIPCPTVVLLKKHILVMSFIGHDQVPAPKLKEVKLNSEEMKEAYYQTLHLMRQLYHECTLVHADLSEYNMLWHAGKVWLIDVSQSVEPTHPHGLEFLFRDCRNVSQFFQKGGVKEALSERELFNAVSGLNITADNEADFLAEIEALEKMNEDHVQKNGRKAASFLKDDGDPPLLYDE
test.details: KINOMEscan competition binding
run.conditions: compound 10.0 µM
Each item that follows carries a reported kinase still bound, per cent of control.

- chemical.structure: "COC(=O)Nc1ccc(-c2nc(N3CCOCC3)c3cnn(C4CCN(C(=O)OC)CC4)c3n2)cc1"
  kinase still bound, per cent of control / %: 100
- chemical.structure: "CC(C)n1nc(-c2cc3cc(O)ccc3[nH]2)c2c(N)ncnc21"
  kinase still bound, per cent of control / %: 83
- chemical.structure: "CCC(=O)N1CCN(c2ccc(-n3c(=O)ccc4cnc5ccc(-c6cnc7ccccc7c6)cc5c43)cc2C(F)(F)F)CC1"
  kinase still bound, per cent of control / %: 90
- chemical.structure: "COc1ccc(-c2ccc3c(N4CCOCC4)nc(N4C[C@@H](C)O[C@@H](C)C4)nc3n2)cc1CO"
  kinase still bound, per cent of control / %: 100

* * *

measured.on: CDK2 CCNA2 (human) (UniProt P20248+P24941)
run.conditions: compound 10.0 µM
readout.type: per cent of control (%)

- chemical.structure: "COC(=O)Nc1ccc(-c2nc(N3CCOCC3)c3cnn(C4CCN(C(=O)OC)CC4)c3n2)cc1"
  readout.type: "per cent of control"
  units.symbol: "%"
  recorded.value: 104
- chemical.structure: "CCC(=O)N1CCN(c2ccc(-n3c(=O)ccc4cnc5ccc(-c6cnc7ccccc7c6)cc5c43)cc2C(F)(F)F)CC1"
  readout.type: "per cent of control"
  units.symbol: "%"
  recorded.value: 77
- chemical.structure: "CC(C)n1nc(-c2cc3cc(O)ccc3[nH]2)c2c(N)ncnc21"
  readout.type: "per cent of control"
  units.symbol: "%"
  recorded.value: 40
- chemical.structure: "COc1ccc(-c2ccc3c(N4CCOCC4)nc(N4C[C@@H](C)O[C@@H](C)C4)nc3n2)cc1CO"
  readout.type: "per cent of control"
  units.symbol: "%"
  recorded.value: 90
